Could you please report measured half-life for the items listed next?
assay remarks: In vitro plasma stability (half-life) in freshly collected mouse blood, LC-MS/MS
Format: in vitro ADME
conditions used: up to 8 hours at 37°C in Swiss (CD-I) mouse blood, analyte quantified in the plasma fraction

Enquiry: I would be grateful if you could share the reported half-life for `CSCC[C@@H]1NC(=O)[C@H](N)CSSC[C@@H](C(=O)O)NC(=O)CN(C)C(=O)[C@H](CCCNC(=N)N)NC(=O)[C@H](CC(C)C)NC(=O)[C@H](CCCNC(=N)N)NC(=O)[C@@H]2CCCCN2C1=O` .
Return: 5.9 h

Enquiry: Also, `CSCC[C@@H]1NC(=O)[C@H](N)CSSC(C)(C)[C@@H](C(=O)O)NC(=O)CNC(=O)[C@H](CCCNC(=N)N)NC(=O)[C@H](CC(C)C)NC(=O)[C@H](CCCNC(=N)N)NC(=O)[C@@H]2CCCCN2C1=O` please.
Return: 3.9 h

Enquiry: Next entry: `CSCC[C@@H]1NC(=O)[C@H](N)CSSC(C)(C)[C@@H](C(=O)O)NC(=O)CNC(=O)[C@H](CCCNC(=N)N)NC(=O)[C@H](CC(C)C)NC(=O)[C@H](CCCNC(=N)N)NC(=O)[C@@H]2CSCN2C1=O`
Return: 4 h

Enquiry: Repeat for the following molecule: `CSCC[C@@H]1NC(=O)[C@H](N)CSSC(C)(C)[C@@H](C(=O)O)NC(=O)CN(C)C(=O)[C@H](CCCNC(=N)N)NC(=O)[C@H](CC(C)C)NC(=O)[C@H](CCCNC(=N)N)NC(=O)[C@@H]2CSCN2C1=O`
Return: 4.9 h

Enquiry: For `CSCC[C@@H]1NC(=O)[C@H](N)CSSC(C)(C)[C@@H](C(=O)O)NC(=O)CN(C)C(=O)[C@H](CCCNC(=N)N)NC(=O)[C@H](CC(C)C)NC(=O)[C@H](CCCNC(=N)N)NC(=O)[C@@H]2CCCCN2C1=O` then?
Return: 9.2 h
